The entries below come with measured melting point values attached.

Previously resolved entries follow.
>>> result_value("COc1cc(C(=O)Oc2ccc(C=O)cc2)cc(OC)c1OC")
"113 to 115 °C"
>>> result_value("CCN(C)c1ccc(C(C)=O)cc1")
"41 to 43 °C"
>>> result_value("CC(=O)c1ccc(OCC(=O)N(C)C)cc1")
"125 to 127 °C"
>>> result_value("Cc1nc2scc(C)n2c1C=O")
"153 to 155 °C"
>>> result_value("NC(=O)CN(Cc1ccccc1)c1cccc(N)c1")
"169 to 171 °C"

Consider the compound Cn1ncc(Cl)c(Cl)c1=O and give its measured melting point.
87 to 89 °C

Queued: CC(C)(C)OC(=O)NC1CCN(c2ccc(C#N)cn2)CC1
188 to 190 °C

Try O=C(O)c1cc(-c2ccccc2)nc2c1cnn2Cc1cccnc1 next.
210 to 212 °C

Next entry: Cc1nc(-c2cccc(NC(=O)CCl)c2)cs1
45 to 47 °C

What about Cc1cccn2c(=O)c(C(=O)O)cnc12 ?
205 to 207 °C

Item: Cc1ccc(C(=O)NC2CC2)cc1N
114 to 116 °C

Check O=C(O)C1CC=CCC1C(=O)N1CCCC1 (stereo not drawn) too.
116 to 118 °C

Now try O=S(=O)(Cl)c1cnn(C2CCOCC2)c1 .
59 to 61 °C
